# Test system: Arabidopsis thaliana seedlings
# Test Conditions: in vivo
The entries below are paired with their reported Shoot.
Quantity Kind: Shoot

- CCOP(=O)(NCc1cccnc1)c1ccc(F)c2ccccc12 (centres unmarked) [Analogue E5]: 0
- CCOP(=O)(NCc1cccnc1)c1ccc(Br)c2ccccc12 (centres unmarked) [Analogue E3]: 0

---

# System: Arabidopsis thaliana Columbia (Col0) seedlings
# Test: Lateral root initiation (lateral roots + lateral root primordia, number and density)
# Format: in vivo
# Test Conditions: in vivo
Quantity Kind: effect on number of LR+ LRP (lateral root initiation)

• CCOP(=O)(NCc1ccncc1)c1ccc(Br)c2ccccc12 (stereo not drawn) [Analogue E7] = strong inhibitors
• CCOP(=O)(NCc1ccccc1)c1ccc(F)c2ccccc12 (stereo not drawn) [Analogue E6] = strong inhibitors

---

# Test system: Arabidopsis thaliana Columbia (Col0) seedlings
# Test: Lateral root initiation (lateral roots + lateral root primordia, number and density)
# Assay type: in vivo
# Test Conditions: in vivo
Quantity Kind: LR

- CCOP(=O)(NCc1cccnc1)c1ccc(Br)c2ccccc12 (centres unmarked): +
- CCOP(=O)(NCc1ccccc1)c1ccc(F)c2ccccc12 (centres unmarked): +++
- CCOP(=O)(NCc1ccccc1)c1ccc(Br)c2ccccc12 (centres unmarked): +++
- CCOP(=O)(OCc1ccccn1)c1ccccc1 (centres unmarked) [Analogue D2]: 0
- CCOP(=O)(Nc1cccnc1)c1ccccc1 (centres unmarked): 0
- CCOP(=O)(NCc1ccccn1)c1ccc(Br)c2ccccc12 (centres unmarked) [Analogue E1]: ++
- CC1=CC(=O)CC(C)(C)[C@@]1(O)/C=C/C(C)=C\C(=O)O [ABA, Abscisic acid, reference compound]: +++
- CCOP(=O)(NCc1ccccn1)c1ccc(F)c2ccccc12 (centres unmarked) [Analogue E2]: +
- CCOP(=O)(NCc1ccccn1)c1cccc2ccccc12 (centres unmarked): +
- CCOP(=O)(NCc1cccnc1)c1ccc(F)c2ccccc12 (centres unmarked): +
- CCOP(=O)(NCc1ccncc1)c1ccc(Br)c2ccccc12 (centres unmarked): +++

---

# Tested on: Arabidopsis thaliana seedlings
# Test Conditions: in vivo
Quantity Kind: Shoot

* CCOP(=O)(NCc1ccccc1)c1ccc(Br)c2ccccc12 (stereo not drawn) | +++
* CCOP(=O)(NCc1ccccn1)c1ccc(F)c2ccccc12 (stereo not drawn) [Analogue E2] | −
* CC1=CC(=O)CC(C)(C)[C@@]1(O)/C=C/C(C)=C\C(=O)O [ABA, Abscisic acid, reference compound] | +++

Data provenance: patent US9957288B2
